Provide the reported melting point of each item.
Numbers only, in °C.

Below, 4 compounds whose answers are already recorded.
OC[C@@H]1[C@H](CO)[C@@H]2C=C[C@H]1C2 [5-norbornene-2-endo,3-endo-dimethanol]	84
OB(O)c1cc(Cl)cnc1Cl	154
O=[N+]([O-])c1ccccc1O [nitrophenol]	45
CC(=O)Nc1ccccc1C(=O)O	186

For the next question, use this compound.
Q. Suppose we examine the compound `Cc1cc(C)c(C)cc1C` ; what melting point value has been reported?
A. 79

###

The label is Y for melting point below 100 °C and N for melting point equal to or exceeding 100 °C.

Cc1cc(C)cc(B(O)O)c1	N

Q. Hello, is melting point of the following compound strictly smaller than 100 °C? COC(=O)CCCCC(=O)OC [dimethyl adipate]
A. Y

Q. Hello, is melting point of the following compound strictly smaller than 100 °C? `COc1ccc(C=O)cc1OC`
A. Y

Q. Hello, is melting point of the following compound strictly smaller than 100 °C? `CC#CC`
A. Y

Q. Hello, is melting point of the following compound strictly smaller than 100 °C? CC12CCC(/C(=C\Nc3ccccc3C(=O)O)C1=O)C2(C)C (configuration not stated)
A. N

Q. Hello, is melting point of the following compound strictly smaller than 100 °C? `CC(C)=C/C(C)(C)C`
A. Y

###

Measurement Name: melting point (°C)
One number for each entry, in °C.

Below, 8 molecules whose answers are already recorded.
CCCCCCP(=O)(O)O [N-hexylphosphonic acid]	109
Nc1c(Br)cc(Br)c2c1C(=O)c1ccccc1C2=O [1-Amino-2,4-dibromo-9,10-anthraquinone]	226
CCOC(=O)c1ccc(C#N)cc1 [ethyl_p-cyanobenzoate]	54
Oc1ccccc1-c1nc2ccccc2s1 [2-(2-hydroxyphenyl)benzothiazole]	132
CCCC(C)(COC(N)=O)COC(N)=O [meprobamate]	105
CCOC(=O)C(C#N)=C(SC)SC [Ethyl 2-cyano-3,3-bis(methylsulfanyl)acrylate]	54
OC[C@@H](O)[C@H](O)[C@@H](O)CO [D-Xylitol]	104
COc1ccc(C=O)c(OC)c1OC [2,3,4-trimethoxybenzaldehyde]	40

Dear colleague, could you please provide melting point for the molecules listed below?
1. CCCc1ccccc1 [N-propylbenzene]
2. NS(=O)(=O)c1cc2c(cc1Cl)NCNS2(=O)=O [hydrochlorothiazide]

A.
[-100, 269]

###

Measurement Name: melting point (°C)
Numbers only, in °C.

CC(CP(=O)(O)O)P(=O)(O)O (centres undefined)	178
CN1CCCN(C)CCN(C)CCCN(C)CC1	35
CCc1ccc(C)cc1	-62

Dear colleague, could you please provide melting point for the molecules listed below?
1. CN1CC(Br)C(=O)NC1=O (centres undefined) [5-bromo-1-methyldihydropyrimidine-2,4(1H,3H)-dione]
2. O=C4\C=C2/[C@]([C@H]1CC[C@@]3([C@@H](C(=O)CO)CC[C@H]3[C@@H]1CC2)C)(C)CC4
3. O=C(O)c1ccccc1 [benzoic_acid]
4. CCC(=O)OC(=O)CC [propionic anhydride]
5. CC12CCC(C(C(c3ccccc3)c3ccccc3)C1=O)C2(C)C (centres undefined)
6. COc1cc(Cl)c(Cl)c(Cl)c1Cl [1-methoxy-2,3,4,5-tetrachlorobenzene]

A.
149
142
123
-44
107
88

###

Structures can show the parent of a compound that is named as a salt.
I would appreciate it if you labelled entries yes when melting point is 200 °C or higher, otherwise no.

Q. Check the entry NC(=O)c1cccnc1 [nicotinamide] : does melting point equal or exceed 200 °C?
A. no

Q. Check the entry COC(=O)C(=O)OC [dimethyl oxalate] : does melting point equal or exceed 200 °C?
A. no

Q. Check the entry `CCCCc1ccc(O)cc1` : does melting point equal or exceed 200 °C?
A. no

Q. Check the entry `Oc1cc(C(F)(F)F)n2nc(-c3ccc(Cl)cc3)cc2n1` : does melting point equal or exceed 200 °C?
A. no

Q. Check the entry `Cc1ccc2c(c1)no[n+]2[O-]` : does melting point equal or exceed 200 °C?
A. no

Q. Check the entry `Oc1ccc(Cl)c(O)c1` : does melting point equal or exceed 200 °C?
A. no

Q. Check the entry NC(=O)c1ccccc1O [Salicylamide] : does melting point equal or exceed 200 °C?
A. no

Q. Check the entry C[C@]12CCC(=O)C=C1CC[C@@H]1[C@@H]2[C@@H](O)C[C@@]2(C)[C@H]1CC[C@]2(O)C(=O)CO [Hydrocortisone] : does melting point equal or exceed 200 °C?
A. yes

Q. Check the entry Cc1ccc(C(=O)Cl)cc1 [p-toluoyl chloride] : does melting point equal or exceed 200 °C?
A. no

Q. Check the entry `CC(=O)OCC1=C(C(=O)O)N2C(=O)[C@@H](NC(=O)Cc3cccs3)[C@H]2SC1` : does melting point equal or exceed 200 °C?
A. no

Q. Check the entry O=C(O)/C=C/C(=O)O [Fumaric Acid] : does melting point equal or exceed 200 °C?
A. yes

Q. Check the entry `CC[C@H](C)C(=O)O[C@H]1C[C@H](O)C=C2C=C[C@H](C)[C@H](CC[C@@H](O)C[C@@H](O)CC(=O)O)[C@H]21` : does melting point equal or exceed 200 °C?
A. yes

Q. Check the entry `C/C(C)=CCN2CC[C@@]1(C)c3cc(O)ccc3C[C@@H]2[C@@H]1C` : does melting point equal or exceed 200 °C?
A. no

Q. Check the entry `CCC1(C2=CCCCCC2)C(=O)NC(=O)NC1=O` : does melting point equal or exceed 200 °C?
A. no

Q. Check the entry ClC(Cl)Cl [Chloroform] : does melting point equal or exceed 200 °C?
A. no

Q. Check the entry `ClCCCl` : does melting point equal or exceed 200 °C?
A. no

Q. Check the entry CCOC(=O)c1ccc(C(=O)OCC)cc1 [diethyl terephthalate] : does melting point equal or exceed 200 °C?
A. no
